B1: KRT13 (parent)
chain: YGGGLGGGFGGGFAGGFVDFGACD

- Variants of: B1
- protocolDescription: protein stability index of a GFP-peptide fusion (GPS, HEK-293T) (PSI 1-6); higher = more stable;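 further: lentivirally expressed fusions sorted by FACS into six bins by GFP to DsRed ratio, PSI derived from sequencing read proportions per bin multiplied by bin number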
- conditions: c terminus: a fixed tail appended
measuredMetric: protein stability index
Enter a number only.

Can you share its protein stability index? I mean this variant: YGGGLGGGFGPGFAGGFVDFGACD [G11P]
2.25

Now consider YGGGLGGGFGGGFAGGFVDFGACS [D24S] and answer again.
2.43

Now consider YGGGLGGGFGGGFAGGTVDFGACD [F17T] and answer again.
1.77

Now consider YGGGLGGGFGGGFAGGFVDFVACD [G21V] and answer again.
1.6

Now consider YGGGLGGGFGGGFTGGFVDFGACD [A14T] and answer again.
1.84

Now consider YGGGLGGGFGGGFAGGFVDFGARD [C23R] and answer again.
2.79

Now consider EGGGLGGGFGGGFAGGFVDFGACD [Y1E] and answer again.
3.3

Now consider YGGGLGGGFGGGFAGGFVDFYACD [G21Y] and answer again.
3.5

Now consider YGGGLGGGFGGGAAGGFVDFGACD [F13A] and answer again.
1.55

Now consider YDGGLGGGFGGGFAGGFVDFGACD [G2D] and answer again.
2.67

Now consider YGGGLGDGFGGGFAGGFVDFGACD [G7D] and answer again.
1.89

Now consider YGGGLGGGFGGGFAGGFVDYGACD [F20Y] and answer again.
1.5

Now consider YGGGLGFGFGGGFAGGFVDFGACD [G7F] and answer again.
3.32

Now consider YGGGLGGGFGGGFAGGFVDFGALD [C23L] and answer again.
1.72

Now consider YGGGLGSGFGGGFAGGFVDFGACD [G7S] and answer again.
1.48

Now consider YIGGLGGGFGGGFAGGFVDFGACD [G2I] and answer again.
3.26

Now consider YGGVLGGGFGGGFAGGFVDFGACD [G4V] and answer again.
1.55

Now consider YGGGLGGGFGGVFAGGFVDFGACD [G12V] and answer again.
2.42

Now consider YGGPLGGGFGGGFAGGFVDFGACD [G4P] and answer again.
2.03

Now consider SGGGLGGGFGGGFAGGFVDFGACD [Y1S] and answer again.
3.23

Now consider YGGGLGGGFGGGVAGGFVDFGACD [F13V] and answer again.
2.12

Now consider YFGGLGGGFGGGFAGGFVDFGACD [G2F] and answer again.
2.91
